Data origin: patent US20070117743A1

# TGI PANC-1 per entry
System: PANC-1
Experiment: SRB colorimetric assay of cell growth and viability, PANC-1
Format: cell-based, human
Conditions: 48 hours exposure
Where a SMILES comes first, the peptide text is derived from it. Bridges are numbered along the chain shown (N, C = ends). [ ]: non-standard residue; d: D form. The star is where a group is joined. d(aIle) = CC[C@H](C)[C@@H](N)C(=O)O; Hexanoyl(5-Me) = CC(C)CCCC(=O)*; Orn = NCCC[C@H](N)C(=O)O; Dhb = C/C=C(\N)C(=O)O
# output: bare number, implied unit Molar

compound	quantityKind	readoutValue
C/C=C1\NC(=O)[C@H](Cc2ccccc2)NC(=O)[C@@H](C(C)C)NC(=O)[C@@H]([C@@H](C)CC)NC(=O)[C@H](NC(=O)[C@H](NC(=O)[C@H](CCCN)NC(=O)[C@H]2CCCN2C(=O)[C@H](NC(=O)[C@@H](NC(=O)[C@@H](NC(=O)[C@@H](C)NC(=O)CCCC(C)C)[C@@H](C)O)C(C)C)C(C)C)[C@@H](C)CC)[C@@H](C)OC(=O)[C@H](C(C)C)NC1=O [Compound 34, [D-Ala^13]-KF]	TGI PANC-1	2.58E−06

API: the following record is the query input.
What does the data say about its TGI PANC-1? Entry: C/C=C1\NC(=O)[C@H](Cc2ccccc2)NC(=O)[C@@H](C(C)C)NC(=O)[C@@H]([C@@H](C)CC)NC(=O)[C@H](NC(=O)[C@H](NC(=O)[C@H](CCCN)NC(=O)[C@H]2CCCN2C(=O)[C@H](NC(=O)[C@@H](NC(=O)[C@@H](NC(=O)[C@H](NC(=O)CCCC(C)C)C(C)C)[C@@H](C)O)C(C)C)C(C)C)[C@@H](C)CC)COC(=O)[C@H](C(C)C)NC1=O [Compound 3, [D-Ser^6]-KF] ({Hexanoyl(5-Me)}-[dV]TV[dV][dP][Orn][d(aIle)][dS][d(aIle)][dV]F[Dhb]V; ester 8-C)
6.83E−06
